# Test system: BT-549
# run description: Raptinal toxicity, 24 hour IC50 (sulforhodamine B assay for adherent cells)
# Type: cell-based
# conditions: BT-549 (Human Breast Cancer); 24 hour incubation; mean ± SD
measured property: pIC50
Field pIC50 (float): negative decimal logarithm of the concentration in molar.

IN: Given O=CC1(C2(C=O)c3ccccc3-c3ccccc32)c2ccccc2-c2ccccc21 [Raptinal, [9,9′]bifluorenyl-9,9′-dicarbaldehyde] , state its recorded pIC50.
OUT: 5.89

====

# run description: in vitro
# conditions: human, U-937 cells
measured property: cytotoxicity at 2 h, 10 µM

IN: Given O=CC1(C2(C=O)c3ccccc3-c3ccccc32)c2ccccc2-c2ccccc21 [Raptinal, [9,9′]bifluorenyl-9,9′-dicarbaldehyde] , state its recorded cytotoxicity at 2 h, 10 µM.
OUT: ~80%

====

# System: various cancer and non-cancerous cell lines
# run description: 24 hour IC50 across various cancer and non-cancerous cell lines
# Type: cell-based
# conditions: various cancer and non-cancerous cell lines (Table 1, FIG. 4D)
measured property: IC50

IN: Short answer please: IC50, various cancer and non-cancerous cell lines, entry O=CC1(C2(C=O)c3ccccc3-c3ccccc32)c2ccccc2-c2ccccc21 [Raptinal, [9,9′]bifluorenyl-9,9′-dicarbaldehyde]
OUT: 700 to 3400 nM

====

# Test system: MIA PaCa-2
# run description: Raptinal toxicity, 24 hour IC50 (sulforhodamine B assay for adherent cells)
# Assay type: cell-based
# conditions: MIA PaCa-2 (Human Pancreatic Cancer); 24 hour incubation; mean ± SD
measured property: pIC50
Field pIC50 (float): negative decimal logarithm of the concentration in molar.

IN: Short answer please: pIC50, MIA PaCa-2, entry O=CC1(C2(C=O)c3ccccc3-c3ccccc32)c2ccccc2-c2ccccc21 [Raptinal, [9,9′]bifluorenyl-9,9′-dicarbaldehyde]
OUT: 5.72

====

# Tested on: cancer cell lines (HL-60, SK-MEL-5, U-937)
# run description: Initial screens against cancer cell lines
# Assay type: cell-based, Human
# conditions: Homo sapiens; HL-60, SK-MEL-5, U-937; 24 hour assays
measured property: IC50

IN: Given O=CC1(C2(C=O)c3ccccc3-c3ccccc32)c2ccccc2-c2ccccc21 [Raptinal, [9,9′]bifluorenyl-9,9′-dicarbaldehyde] , state its recorded IC50.
OUT: 150 to 700 nM

====

# System: MCF-7
# run description: Raptinal toxicity, 24 hour IC50 (sulforhodamine B assay for adherent cells)
# Assay type: cell-based
# conditions: MCF7; MCF-7 (Human Breast Cancer); 24 hour incubation; mean ± SD
measured property: IC50 (µM)
The response must be a number in µM with no trailing unit.

IN: Given O=CC1(C2(C=O)c3ccccc3-c3ccccc32)c2ccccc2-c2ccccc21 [Raptinal, [9,9′]bifluorenyl-9,9′-dicarbaldehyde] , state its recorded IC50.
OUT: 3.4

====

# Test system: Jurkat
# run description: Raptinal toxicity, 24 hour IC50 (MTS assay for suspension cells)
# Type: cell-based
# conditions: Jurkat (Human Leukemia); 24 hour incubation; mean ± SD
measured property: IC50 (nM)
The response must be a number in nM with no trailing unit.

IN: Given O=CC1(C2(C=O)c3ccccc3-c3ccccc32)c2ccccc2-c2ccccc21 [Raptinal, [9,9′]bifluorenyl-9,9′-dicarbaldehyde] , state its recorded IC50.
OUT: 2700

====

# run description: Pharmacokinetic profiling in mice
# Format: in vivo, C57BL/6 mice
# conditions: female, C57BL/6, mouse, in vivo, iv, 37.5 mg/kg intravenously, mean ± SD, n=3, read-out: elimination half-life
measured property: half-life (h)
The response must be a number in h with no trailing unit.

IN: Given O=CC1(C2(C=O)c3ccccc3-c3ccccc32)c2ccccc2-c2ccccc21 [Raptinal, [9,9′]bifluorenyl-9,9′-dicarbaldehyde] , state its recorded half-life.
OUT: 1.53

====

# Tested on: B16-F10
# run description: Raptinal toxicity, 24 hour IC50 (sulforhodamine B assay for adherent cells)
# Type: cell-based
# conditions: B16-F10 (Mouse Melanoma); 24 hour incubation; mean ± SD
measured property: IC50 (µM)
The response must be a number in µM with no trailing unit.

IN: Given O=CC1(C2(C=O)c3ccccc3-c3ccccc32)c2ccccc2-c2ccccc21 [Raptinal, [9,9′]bifluorenyl-9,9′-dicarbaldehyde] , state its recorded IC50.
OUT: 1.6
